The reported numbers originate from paper PMC7586065.

# MEASUREMENT_PROTOCOL: Pharmacokinetics in xenograft model
# Assay type: in vivo, SCID mice
# CONDITION_CONTEXT: CB17 SCID, mouse, plasma, po, 100 mg/kg, Tmax, 100 mg/kg once daily oral, day 1
REPORTED_ENDPOINT: Tmax
The answer should read as a number with its unit following.

CC[C@H](Nc1ncnc2[nH]cnc12)c1nc2cccc(F)c2c(=O)n1-c1ccccc1 yielded Tmax of 42 min

----------
# MEASUREMENT_PROTOCOL: Pharmacokinetics in xenograft model
# Format: in vivo, SCID mice
# CONDITION_CONTEXT: CB17 SCID, mouse, plasma, po, 100 mg/kg, AUC(0-t), 100 mg/kg once daily oral, day 1
REPORTED_ENDPOINT: AUC(0-t) (ng·h/mL)
The reply should be a number in ng·h/mL, with the unit left off.

CC[C@H](Nc1ncnc2[nH]cnc12)c1nc2cccc(F)c2c(=O)n1-c1ccccc1 yielded AUC(0-t) of 6930
